- Test system: SGK
- condition_set: concentration: 1 μM, replicates: in singlicate; n = 1;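 note: KINOMEscan kinase panel screen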

>  <compound>
COCCOCCOc1cc2ncc3c4ccc(C#N)cc4[nH]c3c2cc1OC

>  <%Inh, %>
89

$$$$
>  <compound>
COc1cccc(C2=C(Nc3ccc(Cl)c(C(=O)O)c3)C(=O)NC2=O)c1 [SB-390769]

>  <%Inh, %>
0

$$$$
>  <compound>
CCc1ccc(-c2ccc3c(c2)-c2c(cnn2C)S(=O)(=O)N3C)cc1

>  <%Inh, %>
0

$$$$
>  <compound>
Cl.Cl.NCC(NCc1ccc(-c2ccnc3[nH]ccc23)s1)c1ccccc1 (centres unmarked) [GSK1321565]

>  <%Inh, %>
55

$$$$
>  <compound>
Cl.NC(=O)c1cccc(Nc2nccc(Nc3ccc(Oc4c(Cl)cccc4Cl)c(Cl)c3)n2)c1 [GW659009]

>  <%Inh, %>
19

$$$$

###

Consider the following compounds and their measured %Inh readings.
- Test system: CHEK2
- condition_set: concentration: 1 μM, replicates: in singlicate; n = 1

>  <compound>
Cl.Cl.NCC(C(=O)Nc1cc(Br)c(-c2ccnc3[nH]ccc23)s1)c1ccccc1 (stereo not drawn)

>  <unit_abbreviation>
%

>  <%Inh>
0

$$$$
>  <compound>
FC(F)(F)c1ccc(/C=C/c2cncnc2Nc2ccc3[nH]c(Cc4ccccc4)nc3c2)cc1

>  <unit_abbreviation>
%

>  <%Inh>
18

$$$$
>  <compound>
COc1cccc(C(=O)Nc2cccc(Oc3ccc4nc(NC(=O)C5CC5)cn4n3)c2)c1

>  <unit_abbreviation>
%

>  <%Inh>
0

$$$$
>  <compound>
COc1cc(Nc2nccc(-c3c(-c4cccc(NC(=O)c5c(F)cccc5F)c4)nn4ccccc34)n2)cc(OC)c1OC

>  <unit_abbreviation>
%

>  <%Inh>
0

$$$$
>  <compound>
COc1cc(Nc2ncc3c(C)nc(-c4cc5ccccc5[nH]4)n3n2)cc(OC)c1OC

>  <unit_abbreviation>
%

>  <%Inh>
0

$$$$
>  <compound>
Oc1cc(Nc2ccnc3cc(I)ccc23)ccc1F

>  <unit_abbreviation>
%

>  <%Inh>
4

$$$$
>  <compound>
COc1ccc(Nc2nccc(NCCNC(=O)c3cc4ccccc4s3)n2)cc1

>  <unit_abbreviation>
%

>  <%Inh>
0

$$$$
>  <compound>
O=C(NC1CCN(c2ccnc(Nc3ccc(F)cc3)n2)C1)c1cc2ccccc2s1 (stereo not drawn)

>  <unit_abbreviation>
%

>  <%Inh>
38

$$$$
>  <compound>
CC(C)(C)c1ccc2nccc(Nc3cccc(O)c3)c2c1

>  <unit_abbreviation>
%

>  <%Inh>
0

$$$$

###

- System: ABL1-phosphorylated
- condition_set: concentration: 1 μM, replicates: in singlicate; n = 1

>  <molecule>
Nc1ncc(-c2cccnc2)c2scc(-c3ccc4c(c3)CCN4C(=O)Cc3ccccc3)c12

>  <%Inh, %>
54

$$$$
>  <molecule>
Cl.Cl.NCC(NCc1ccc(-c2ccnc3[nH]ccc23)s1)c1ccccc1 (stereo not shown)

>  <%Inh, %>
0

$$$$
>  <molecule>
c1ccc(Oc2ccc(Nc3ccnc4cc(-c5ccc(CNCCN6CCOCC6)o5)ccc34)cc2)nc1

>  <%Inh, %>
12

$$$$
>  <molecule>
CC(=O)Nc1nc2cnc(Nc3cc(NC(=O)c4cccc(C5(C#N)CC5)c4Cl)ccc3C)nc2s1

>  <%Inh, %>
59

$$$$
>  <molecule>
CCS(=O)(=O)c1ccc(OC)c(Nc2nccc(-c3c(-c4cccc(NC(=O)c5c(F)cccc5F)c4)nn4ncccc34)n2)c1

>  <%Inh, %>
10

$$$$
>  <molecule>
CN1CCN(Cc2cccc(-c3ccc4c(Nc5ccc(Oc6ccccc6)cc5)ccnc4c3)c2)CC1

>  <%Inh, %>
20

$$$$
>  <molecule>
Cl.c1ccc(-c2ccc3c(Nc4ccc5[nH]ncc5c4)ccnc3c2)nc1

>  <%Inh, %>
73

$$$$
>  <molecule>
c1ccc(-c2n[nH]cc2Nc2ccnc3ccccc23)nc1

>  <%Inh, %>
0

$$$$
>  <molecule>
Cn1cc(-c2ccc3c(c2)CCN3C(=O)Cc2cccc(F)c2)c2c(N)ncnc21

>  <%Inh, %>
41

$$$$
>  <molecule>
Cl.NC(=O)c1cccc(Nc2nccc(Nc3ccc(Oc4c(Cl)cccc4Cl)c(Cl)c3)n2)c1

>  <%Inh, %>
0

$$$$
>  <molecule>
Cl.Cl.NCC(NC(=O)c1cc(-c2ccccc2)c(-c2ccnc3[nH]ccc23)s1)c1ccccc1 (stereo not shown)

>  <%Inh, %>
90

$$$$
>  <molecule>
Oc1cc(Nc2ccnc3cc(I)ccc23)ccc1F

>  <%Inh, %>
99.6

$$$$
>  <molecule>
Cl.c1ccc(-c2ccc3c(Nc4ccc5[nH]ccc5c4)ccnc3c2)nc1

>  <%Inh, %>
94.1

$$$$
>  <molecule>
COC(=O)Nc1nc2cc(Oc3ccc(NC(=O)Nc4cc(C(F)(F)F)ccc4F)cn3)ccc2[nH]1.Cl.Cl

>  <%Inh, %>
74

$$$$
>  <molecule>
CSc1cccc2c(-c3ccncn3)c(-c3ccc(F)cc3)nn12

>  <%Inh, %>
0

$$$$
>  <molecule>
CCc1ccc(-c2ccc3c(c2)-c2c(cnn2C)S(=O)(=O)N3C)cc1

>  <%Inh, %>
0

$$$$
>  <molecule>
C[C@@H]1CC[C@@H](C(=O)Nc2ccccc2)CN1c1cc(-c2ccc3c(N)n[nH]c3c2)nc(N)n1

>  <%Inh, %>
0

$$$$
>  <molecule>
O=C(Nc1cccc(Oc2ccc3nc(NC(=O)C4CC4)cn3n2)c1)c1ccccc1C(F)(F)F

>  <%Inh, %>
90

$$$$
>  <molecule>
COC(=O)Nc1nc2ccc(Oc3ccc(NC(=O)Nc4cc(C(F)(F)F)ccc4F)cc3)cc2n1C.Cl

>  <%Inh, %>
49

$$$$

// provenance: paper PMC5540273
